Assignment: determine reported response vs control in vivo at 25 mg/kg for the given compounds.
Test: Test 2: blood pressure depression up to 24 hours and duration until 50% recovery, oral
Assay type: in vivo, Male, spontaneously hypertension-developing rats
Conditions: Rattus norvegicus; 7h after oral administration; percent based on that before administration (100); read-out: Depression value (%) of blood pressure, 7h
Method: Male, spontaneously hypertension-developing rats of ages of 10 to 11 weeks (in groups of 3 to 5 animals) were used in the test. For blood pressure determination, systolic pressure was measured without anesthesia by an indirect tail-cuff method using a sphygmomanometer (PE-300, Narco Bio-System).
Form entry: value (%) — number only.

Answer with the recorded response vs control in vivo at 25 mg/kg for the compound listed here: COC(=O)C1=C(C)NC(C)=C(C(=O)OCCN(C)Cc2ccccc2)C1c1cncc(C(F)(F)F)c1 (centres unmarked) [(17)] 98

Supply response vs control in vivo at 25 mg/kg value. Item: COC(=O)C1=C(C)NC(C)=C(C(=O)OCCN(C)Cc2ccccc2)C1c1cncc([N+](=O)[O-])c1 (centres unmarked) [(18)] 96

Note response vs control in vivo at 25 mg/kg for the compound shown: COC(=O)C1=C(C)NC(C)=C(C(=O)OCCN(C)Cc2ccccc2)C1c1cc(Br)ccn1 (centres unmarked) [(2)] 92

Report response vs control in vivo at 25 mg/kg for COC(=O)C1=C(C)NC(C)=C(C(=O)OCCN(C)Cc2ccccc2)C1c1cncc(Br)c1 (centres unmarked) [(14)] 90

Return reported response vs control in vivo at 25 mg/kg. Input compound: COC(=O)C1=C(C)NC(C)=C(C(=O)OCCN(C)Cc2ccccc2)C1c1ccnc(C#N)c1 (centres unmarked) [(19)] 98

Find the measured response vs control in vivo at 25 mg/kg of COC(=O)C1=C(C)NC(C)=C(C(=O)OCCN(C)Cc2ccccc2)C1c1ncccc1[N+](=O)[O-] (centres unmarked) [(1)] and report it. 81

Determine from records and report response vs control in vivo at 25 mg/kg for COC(=O)C1=C(C)NC(C)=C(C(=O)OCCN(C)Cc2ccccc2)C1c1cccnc1C#N (centres unmarked) [(12)] 88

State its response vs control in vivo at 25 mg/kg: COC(=O)C1=C(C)NC(C)=C(C(=O)OCCN(C)Cc2ccccc2)C1c1cc([N+](=O)[O-])ccn1 (centres unmarked) [Example 5] 90

---

Assay: Test 1: blood pressure depression effect, systolic pressure, indirect tail-cuff method, oral
Format: in vivo, Male, spontaneously hypertension-developing rats
Conditions: 25 mg/kg oral, 1 hr after administration, average value
Experimental: Blood pressure depression effect Male, spontaneously hypertension-developing rats of ages of 10 to 11 weeks (in groups of 3 to 5 animals) were used in the test. For blood pressure determination, systolic pressure was measured without anesthesia by an indirect tail-cuff method using a sphygmomanometer (PE-300, Narco Bio-System). The compound to be tested was orally administered (at a dose of 25 mg/kg in terms of the active compound) as a 10% HCO-60 (polyoxyethylene hardened castor oil) suspension. […]
VALUE_KIND: Systolic blood pressure (mmHg) After 1 hr
Answer in mmHg, number only, no unit symbol.

Answer with the recorded Systolic blood pressure (mmHg) After 1 hr of COC(=O)C1=C(C)NC(C)=C(C(=O)OCCN(C)Cc2ccccc2)C1c1cccc(C#N)n1 (stereo not shown) only. 115

Kindly indicate its recorded Systolic blood pressure (mmHg) After 1 hr. Item: COC(=O)C1=C(C)NC(C)=C(C(=O)OCCN(C)Cc2ccccc2)C1c1ccnc(C(F)(F)F)c1 (stereo not shown) 139

Please look at this compound and report its Systolic blood pressure (mmHg) After 1 hr: COC(=O)C1=C(C)NC(C)=C(C(=O)OCCN(C)Cc2ccccc2)C1c1cc([N+](=O)[O-])ccn1 (stereo not shown) 156

Tell us which Systolic blood pressure (mmHg) After 1 hr value is on record for COC(=O)C1=C(C)NC(C)=C(C(=O)OCCN(C)Cc2ccccc2)C1c1cccc(Br)n1 (stereo not shown) 126

---

Test: Test 2: blood pressure depression up to 24 hours and duration until 50% recovery, oral
Type: in vivo, Male, spontaneously hypertension-developing rats
Conditions: Rattus norvegicus; 7h after oral administration; percent based on that before administration (100); read-out: Depression value (%) of blood pressure, 7h
Protocol: Male, spontaneously hypertension-developing rats of ages of 10 to 11 weeks (in groups of 3 to 5 animals) were used in the test. For blood pressure determination, systolic pressure was measured without anesthesia by an indirect tail-cuff method using a sphygmomanometer (PE-300, Narco Bio-System).
Kindly state response vs control in vivo at 25 mg/kg for each of the entries shown.
Write down the numeric answer in % and omit the unit.

Using known records, supply response vs control in vivo at 25 mg/kg for COC(=O)C1=C(C)NC(C)=C(C(=O)OCCN(C)Cc2ccccc2)C1c1cccc(Br)n1 (stereo not drawn) [Example 3] 83

Give response vs control in vivo at 25 mg/kg for COC(=O)C1=C(C)NC(C)=C(C(=O)OCCN(C)Cc2ccccc2)C1c1cccc([N+](=O)[O-])c1 (stereo not drawn) [Nic, reference compound] 81

Please give the documented response vs control in vivo at 25 mg/kg of COC(=O)C1=C(C)NC(C)=C(C(=O)OCCN(C)Cc2ccccc2)C1c1cccnc1Br (stereo not drawn) [(11)] 91

---

Test: Test 1: blood pressure depression effect, systolic pressure, indirect tail-cuff method, oral
Type: in vivo, Male, spontaneously hypertension-developing rats
Details: 25 mg/kg oral, 4 hrs after administration, average value
VALUE_KIND: Systolic blood pressure (mmHg) After 4 hrs
The answer is to be given in mmHg; state only the numeric part.

Give a short answer stating reported Systolic blood pressure (mmHg) After 4 hrs for COC(=O)C1=C(C)NC(C)=C(C(=O)OCCN(C)Cc2ccccc2)C1c1ccnc(C(F)(F)F)c1 (stereo not shown) . 145

Provide one value: measured Systolic blood pressure (mmHg) After 4 hrs of COC(=O)C1=C(C)NC(C)=C(C(=O)OCCN(C)Cc2ccccc2)C1c1cc([N+](=O)[O-])ccn1 (stereo not shown) 135

Please give the documented Systolic blood pressure (mmHg) After 4 hrs of COC(=O)C1=C(C)NC(C)=C(C(=O)OCCN(C)Cc2ccccc2)C1c1cccc(Br)n1 (stereo not shown) 143

For the compound COC(=O)C1=C(C)NC(C)=C(C(=O)OCCN(C)Cc2ccccc2)C1c1cccc(C#N)n1 (stereo not shown) , give its reported Systolic blood pressure (mmHg) After 4 hrs. 137
